# assay.overview: Solubility of L-cystine neutralized with fatty acids, HPLC (Example 5)
# condition.details: excess L-cystine in NaOH neutralized with the named acid, equilibrated at least 72 hours, filtered, HPLC; 3 replicas
# Method: Solubility of cystine was determined in the presence of alternative fatty acids. […] The precipitate upon neutralization was equilibrated with saturated solution for at least 72 hours. The solutions were then filtered through 0.45 micrometer PTFE or nylon (for C12) syringe filter and analysed on HPLC for cystine concentration.
Entries and their measured Solubility ppm cystine follow.
readout.kind: Solubility ppm cystine (ppm)

[[record]]
compound = "CCCCCCCC/C=C\\CCCCCCCC(=O)O [Oleic acid (C18:1), Oleic acid]"
readout_kind = "Solubility ppm cystine"
result_number = 246.8

[[record]]
compound = "CCCCCCCCCCCC(=O)O [Dodecanoic (C12) with NaOH, Dodecanoic]"
readout_kind = "Solubility ppm cystine"
result_number = 575

[[record]]
compound = "CCCCCCCCCCCC(=O)O [Dodecanoic (C12) with KOH, Dodecanoic]"
readout_kind = "Solubility ppm cystine"
result_number = 490.6

[[record]]
compound = "O=C(O)/C=C\\C(=O)O [Maleic]"
readout_kind = "Solubility ppm cystine"
result_number = 181.6


Where do these numbers come from? They come from patent US11666519B2.
